Could you please report measured melting point for the items listed next?
Numbers only, in °C.

Clc1cccc(-c2nc3c(c(NC4CCCC4)n2)CCC3)c1	129
COc1cccc(CCNc2nc(-c3ccc(Cl)cc3)nc3c2CCC3)c1.Cl	230
COc1ccc(-c2nc3c(c(N4CCOCC4)n2)CCC3)cc1	192
CCCN(CCC)c1nc(-c2ccc(C)cc2)nc2c1CCC2	117

Now consider a different molecule.
input: Supply reported melting point belonging to this molecule: `COc1ccc(-c2nc3c(c(NC4CCCC4)n2)CCC3)cc1`
output: 154

----------
subjectOfTest: soluble guanylate cyclase (sGC) (Bos taurus, UniProt P16068+P19687)
Construct: The sGC employed had been isolated from bovine lung; from tissue; host or cells: bovine lung
Sequence (P19687 1-691): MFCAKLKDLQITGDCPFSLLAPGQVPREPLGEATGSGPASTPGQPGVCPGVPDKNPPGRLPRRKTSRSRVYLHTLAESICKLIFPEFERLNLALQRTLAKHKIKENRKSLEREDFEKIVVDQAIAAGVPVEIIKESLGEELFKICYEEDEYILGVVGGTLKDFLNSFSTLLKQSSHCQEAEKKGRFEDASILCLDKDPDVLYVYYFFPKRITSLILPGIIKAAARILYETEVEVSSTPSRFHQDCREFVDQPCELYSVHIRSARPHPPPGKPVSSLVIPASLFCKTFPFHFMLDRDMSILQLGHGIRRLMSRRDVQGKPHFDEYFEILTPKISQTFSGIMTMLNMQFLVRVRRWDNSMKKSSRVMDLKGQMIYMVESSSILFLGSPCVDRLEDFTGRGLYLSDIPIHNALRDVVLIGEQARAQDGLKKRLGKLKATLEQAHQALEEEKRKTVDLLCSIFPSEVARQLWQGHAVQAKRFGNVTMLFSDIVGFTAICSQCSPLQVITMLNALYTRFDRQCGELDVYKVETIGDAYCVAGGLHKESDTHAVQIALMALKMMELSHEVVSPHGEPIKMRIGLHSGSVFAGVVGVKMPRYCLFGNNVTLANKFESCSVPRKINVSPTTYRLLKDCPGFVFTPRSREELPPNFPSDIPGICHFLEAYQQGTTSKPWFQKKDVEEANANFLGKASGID
Sequence (P16068 1-619): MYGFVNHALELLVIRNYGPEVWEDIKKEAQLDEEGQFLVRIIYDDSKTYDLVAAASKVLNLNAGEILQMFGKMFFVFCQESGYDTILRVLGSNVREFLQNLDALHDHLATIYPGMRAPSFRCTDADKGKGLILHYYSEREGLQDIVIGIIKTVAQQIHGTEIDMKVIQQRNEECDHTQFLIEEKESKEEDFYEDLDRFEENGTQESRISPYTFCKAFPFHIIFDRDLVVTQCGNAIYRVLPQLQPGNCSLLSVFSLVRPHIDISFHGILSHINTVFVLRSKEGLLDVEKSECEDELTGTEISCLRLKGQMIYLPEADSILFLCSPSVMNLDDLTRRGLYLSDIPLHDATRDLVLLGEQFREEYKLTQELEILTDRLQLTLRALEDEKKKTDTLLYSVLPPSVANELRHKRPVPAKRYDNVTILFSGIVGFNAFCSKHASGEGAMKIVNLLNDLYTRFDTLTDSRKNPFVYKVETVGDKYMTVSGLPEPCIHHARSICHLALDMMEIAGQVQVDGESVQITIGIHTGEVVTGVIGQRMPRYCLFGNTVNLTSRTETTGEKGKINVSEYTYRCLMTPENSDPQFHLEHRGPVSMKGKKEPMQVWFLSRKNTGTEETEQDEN
methodDescription: Activation of soluble guanylate cyclase (cGMP enzyme immunoassay)
Format: biochemical
conditionDescription: sGC isolated from bovine lung; test substance 50 μM; 5% DMSO; 37° C., 15 to 20 minutes; [cGMP]test substance/[cGMP]control (basal enzyme activity)
Classification field: condition met = n-fold stimulation at c = 50 μM at or over 6 fold; condition not met = n-fold stimulation at c = 50 μM under 6 fold.

Consider the worked cases shown below.
CCCCNc1nc(-c2cc(Cl)cc(Cl)c2)nc2c1CCC2 [Example 49]	condition not met
Clc1cccc(-c2nc3c(c(NC4CCCC4)n2)CCC3)c1 [Example 32]	condition met
CCCN(CCC)c1nc(-c2ccc(C)cc2)nc2c1CCC2 [Example 45]	condition met

Consider the additional molecule presented here.
input: Test whether the molecule CS(=O)(=O)O.O[C@H]1CC[C@H](Nc2nc(-c3cc(Cl)cc(Cl)c3)nc3c2CCC3)CC1 [Example 16] records n-fold stimulation at c = 50 μM of 6 fold or higher.
output: condition met
